- system under test: RSV postfusion F (postF, F deltaFP) (Respiratory syncytial virus)
- experiment description: BLI, IgG on sensor, 100 nM antigen
observed property: Kd (nM)

{"binder": "ADI-41279 (antibody, V domains shown) VH: QVQLVQSGAEVKKAGETLKISCRGPAHTFTSFWIGWVRQTPGKGLEWMGNIYPGDTDTTYSPSFRGQVTISADKSISTAYLQWNSLKASDTAIYYCATRVRHGYSSSGSFESWGQGTMVTVSS VL: QSVVTQPPSVSGAPGQRITISCTGSNSNTGAGYDVHWYQQLPGAAPKLLIFANNNRPSGVPDRFSGSKSGTSASLAITGLQAEDEADYYCQSYDNSLSAYVFGTGTKLTVL", "experimental result": 47.8}
{"binder": "ADI-41341 (antibody, V domains shown) VH: QVQLVQSGAEVKKPGSSVKVSCKASGGTFSSYATHWVRQAPGQGLEWMGGIIPIFGRATYAQKFQGRVTISADESTSTAYMELSSLRSEDTAVYYCARGRDDRSGDHIAFLYHYGMDVWGQGSTVTVSS VL: QSVLTQPPSVSAAPGQKVSISCSGSSSNIGINHASWYQHLPGTAPKLLIYDNNKRPSGIPDRFSGSKSGTSATLGISGLQTGDEAAYYCGTWDTGLSAVVFGGGTKLTVL", "experimental result": 1.97}
{"binder": "ADI-41283 (antibody, V domains shown) VH: QVTLKESGPTLVKPTQTLTLTCTFSGFSLSTFGVAVGWIRQPPGKALEWLALIYWDDDKRYSPSLKSRLTITKDISKNQVVLTMTNMDPVDTATYYCAHRLRSLTARGVFDIWGQGTTVTVSS VL: DIRLTQSPSSLSASVGDRVTITCRASQSINNFLNWYQQRPGKAPTLLIYSASSLQSGVPSRFSGSGSGTDFTLTISSLQPEDFATYFCQQTDSFPWTFGQGTKVEIK", "experimental result": 7.95}
